pKi reference
- experimental system: Muscarinic acetylcholine receptor M3 (Homo sapiens)
- Sequence (P20309 whole entry): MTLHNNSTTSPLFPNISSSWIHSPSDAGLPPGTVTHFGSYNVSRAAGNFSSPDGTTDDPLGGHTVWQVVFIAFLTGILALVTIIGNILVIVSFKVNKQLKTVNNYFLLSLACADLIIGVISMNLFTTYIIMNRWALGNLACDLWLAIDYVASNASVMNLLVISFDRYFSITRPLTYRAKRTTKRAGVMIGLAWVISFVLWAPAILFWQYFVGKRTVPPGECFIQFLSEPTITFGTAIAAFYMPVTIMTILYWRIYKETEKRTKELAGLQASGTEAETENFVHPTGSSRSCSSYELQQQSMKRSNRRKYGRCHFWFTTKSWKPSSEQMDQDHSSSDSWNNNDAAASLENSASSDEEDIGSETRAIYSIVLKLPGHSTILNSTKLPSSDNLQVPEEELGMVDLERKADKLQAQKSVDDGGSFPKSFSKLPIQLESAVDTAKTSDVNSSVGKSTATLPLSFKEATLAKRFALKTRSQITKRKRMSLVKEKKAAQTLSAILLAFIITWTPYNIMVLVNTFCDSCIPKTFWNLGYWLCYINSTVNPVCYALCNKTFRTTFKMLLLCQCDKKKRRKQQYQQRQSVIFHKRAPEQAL
API: returns pKi as number; meaning -log10 of concentration in mol/L.

• CN1[C@@H]2C[C@@H](Oc3nc4ccccc4n3-c3ccccc3)C[C@H]1[C@@H]1O[C@@H]12 = 6.46

Would you kindly look at the next entry?
API: value(readout=pKi, system=Muscarinic acetylcholine receptor M3 (Homo sapiens)) for record CN1[C@@H]2CC[C@H]1C[C@@H](Oc1nc3ccccc3n1-c1ccccc1)C2
7.34
